Hey, just so you know, these numbers are from patent US8975406B2.

target: Recombinant human JAK2 (Homo sapiens); construct: catalytic domain (amino acids 808-1132; catalog number PV4210); GST; test: JAK2 Ulight-JAK1 peptide assay; details: Ulight-JAK1(tyr1023) peptide, 7.5 μM ATP
pIC50: −log10 of the molar value.
testReadout: pIC50

Some solved cases for reference:
| compoundStructureString | pIC50 |
| --- | --- |
| O=C(Nc1cc2c(-c3ccc(CN4CCCCC45COC5)cc3)cccn2n1)C1CC1 | 6.30 to 7.00 |
| CC(=O)Nc1cc2c(-c3ccc(CN4CCN(S(C)(=O)=O)C[C@H]4C)cc3)cccn2n1 | 6.00 to 6.30 |
| O=C(Nc1cc2c(-c3ccc(C(=O)N4CCCCC4)cc3)cccn2n1)C1CC1 | 7.00 to 11.00 |
| CC(=O)Nc1cc2c(-c3ccc(CN4CCN(S(C)(=O)=O)CC4)c(F)c3)cccn2n1 | 7.00 to 11.00 |
| CS(=O)(=O)N1CCN(Cc2ccc(-c3cccn4nc(NC(=O)C5CC5)cc34)cc2)CC1 | 7.00 to 11.00 |

The value of pIC50 measured for the molecule CC(=O)Nc1cc2c(-c3ccc(C(=O)N4CCOCC4)cc3)cccn2n1 turned out to be 6.30 to 7.00

The value of pIC50 measured for the molecule CC(=O)Nc1cc2c(-c3ccc(CC(=O)N4C[C@@H](C)O[C@@H](C)C4)cc3)cccn2n1 turned out to be 6.30 to 7.00

The value of pIC50 measured for the molecule CC(=O)Nc1cc2c(-c3ccc(CN4CCC(S(C)(=O)=O)CC4)c(F)c3)cccn2n1 turned out to be 7.00 to 11.00

====

molecular target: Recombinant human JAK1 (Homo sapiens); construct: catalytic domain (amino acids 866-1154; catalog number PV4774); experiment: JAK1 Ulight-JAK1 peptide assay; settings: Ulight-JAK1(tyr1023) peptide, 7 μM ATP
Sequence (P23458 866-1154): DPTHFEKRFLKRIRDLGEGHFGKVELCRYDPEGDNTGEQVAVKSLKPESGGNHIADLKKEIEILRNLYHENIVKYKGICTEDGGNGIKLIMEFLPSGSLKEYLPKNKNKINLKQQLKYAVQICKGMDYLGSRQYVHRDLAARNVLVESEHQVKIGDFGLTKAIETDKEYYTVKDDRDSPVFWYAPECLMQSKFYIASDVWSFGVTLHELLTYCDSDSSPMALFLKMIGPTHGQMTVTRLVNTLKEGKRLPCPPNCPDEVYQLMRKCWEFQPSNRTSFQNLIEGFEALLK
pIC50: −log10 of the molar value.
Documented pIC50 across a set of molecules

| molecule | subjectOfTest | testResult |
| --- | --- | --- |
| CC(=O)Nc1cc2c(-c3ccc(C(=O)N4CCOCC4)cc3)cccn2n1 [Compound 42] | Recombinant human JAK1 (Homo sapiens) | 6.00 to 6.30 |
| CS(=O)(=O)C1CCN(Cc2ccc(-c3cccn4nc(NC(=O)C5CC5)cc34)cc2F)CC1 [Compound 18] | Recombinant human JAK1 (Homo sapiens) | 7.00 to 11.00 |
| CC(=O)Nc1cc2c(-c3ccc(CN4CCS(=O)(=O)CC4)c(F)c3)cccn2n1 [Compound 27] | Recombinant human JAK1 (Homo sapiens) | 7.00 to 11.00 |

The value of pIC50 measured for the molecule O=C(NCCc1ccccc1)c1ccc(-c2cccn3nc(NC(=O)C4CC4)cc23)cc1 [Compound 5] turned out to be 7.00 to 11.00

====

Documented pIC50 across a set of compounds
biological target: Recombinant human JAK2 (Homo sapiens, UniProt O60674); construct: catalytic domain (amino acids 808-1132; catalog number PV4210); GST; assay: JAK2 Ulight-JAK1 peptide assay; conditions: Ulight-JAK1(tyr1023) peptide, 7.5 μM ATP
Sequence (O60674 808-1132): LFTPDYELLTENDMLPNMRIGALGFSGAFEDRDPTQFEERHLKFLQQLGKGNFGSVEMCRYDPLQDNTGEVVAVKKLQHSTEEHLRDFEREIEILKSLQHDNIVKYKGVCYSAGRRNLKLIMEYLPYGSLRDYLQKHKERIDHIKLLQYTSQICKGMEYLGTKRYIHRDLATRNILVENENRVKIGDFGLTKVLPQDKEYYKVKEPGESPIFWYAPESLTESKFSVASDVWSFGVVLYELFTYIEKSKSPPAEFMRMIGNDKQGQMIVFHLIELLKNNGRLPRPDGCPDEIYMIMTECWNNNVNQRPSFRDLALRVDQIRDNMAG
pIC50: −log10 of the molar value.

Some solved cases for reference:
| compound | testResult |
| --- | --- |
| O=C(NCCc1ccccc1)c1ccc(-c2cccn3nc(NC(=O)C4CC4)cc23)cc1 | 7.00 to 11.00 |
| CC(=O)Nc1cc2c(-c3ccc(C(=O)N4CCC4)cc3)cccn2n1 | 6.30 to 7.00 |
| O=C(Nc1cc2c(-c3ccc(CN4CCS(=O)(=O)CC4)cc3)cccn2n1)C1CC1 | 7.00 to 11.00 |
| C[C@@H]1CN(S(C)(=O)=O)CCN1Cc1ccc(-c2cccn3nc(NC(=O)C4CC4)cc23)cc1 | 7.00 to 11.00 |
| CC(=O)Nc1cc2c(-c3ccc(CN4CCN(CC(F)(F)F)CC4)c(F)c3)cccn2n1 | 7.00 to 11.00 |
| CC(=O)Nc1cc2c(-c3ccc(C(C)N4CCN(S(C)(=O)=O)CC4)cc3)cccn2n1 (centres unmarked) | 7.00 to 11.00 |

The value of pIC50 measured for the compound C[C@@H](c1ccc(-c2cccn3nc(NC(=O)C4CC4)cc23)cc1)N1CCN(S(C)(=O)=O)CC1 turned out to be 7.00 to 11.00

The value of pIC50 measured for the compound CC(=O)Nc1cc2c(-c3ccc(C(=O)N4CC(F)(F)C4)cc3)cccn2n1 turned out to be 6.30 to 7.00

The value of pIC50 measured for the compound COc1ccc(-c2cccn3nc(NC(=O)C4CC4)cc23)cc1 turned out to be 7.00 to 11.00

The value of pIC50 measured for the compound O=C(Nc1nn2cccc(-c3ccc(CN4CCS(=O)(=O)CC4)cc3)c2c1Cl)C1CC1 turned out to be 7.00 to 11.00

The value of pIC50 measured for the compound O=C(Nc1cc2c(-c3ccc4c(ccn4Cc4ccccc4)c3)cccn2n1)C1CC1 turned out to be 6.30 to 7.00

The value of pIC50 measured for the compound O=C(Nc1cc2c(-c3ccc(OCc4ccccc4)cc3)cccn2n1)C1CC1 turned out to be 6.30 to 7.00
